Biological target: Human SST5 somatostatin receptor (SSTR5) (Homo sapiens, UniProt P35346)
Construct: expressed in transfected cells; host or cells: HEK-293 EBNA
Sequence (P35346 whole entry): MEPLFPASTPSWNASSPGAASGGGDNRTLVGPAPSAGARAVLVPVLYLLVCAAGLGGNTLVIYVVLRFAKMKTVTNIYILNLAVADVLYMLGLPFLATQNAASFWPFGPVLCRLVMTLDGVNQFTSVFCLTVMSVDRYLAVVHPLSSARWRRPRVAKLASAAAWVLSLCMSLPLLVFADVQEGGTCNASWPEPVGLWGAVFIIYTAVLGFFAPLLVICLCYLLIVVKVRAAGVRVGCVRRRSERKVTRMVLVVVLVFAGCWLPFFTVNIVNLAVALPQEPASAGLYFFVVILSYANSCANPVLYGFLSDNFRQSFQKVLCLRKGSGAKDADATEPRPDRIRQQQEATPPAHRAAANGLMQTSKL
Assay: Filter plate assay for SST5 receptor, displacement of [125I]SST-14
Type: binding
Conditions: 0.5 uM
Reported SSTR5 Inhib 0.5 uM % (inhibition of binding of SST-14 to SSTR5) values are given for each entry in this list.
RECORDED_ENDPOINT: SSTR5 Inhib 0.5 uM % (inhibition of binding of SST-14 to SSTR5) (%)

>  <COMPOUND>
COC[C@H]1OC(OCc2ccc(-c3ccccc3)cc2)[C@H](NC(=O)CCCN)[C@@H](OCc2ccc(-c3ccccc3)cc2)[C@@H]1O (stereo partly shown) [Compound 80]

>  <TESTED_TARGET>
Human SST5 somatostatin receptor (SSTR5) (Homo sapiens, UniProt P35346)

>  <EXPERIMENTAL_VALUE>
44

$$$$
>  <COMPOUND>
CSC1O[C@H](COCc2ccc(Cl)cc2)[C@@H](O)[C@@H](OCc2ccccc2)[C@H]1NC(=O)CCNC(=N)N (stereo partly shown) [Compound 142]

>  <TESTED_TARGET>
Human SST5 somatostatin receptor (SSTR5) (Homo sapiens, UniProt P35346)

>  <EXPERIMENTAL_VALUE>
44

$$$$
>  <COMPOUND>
COC[C@H]1OC(OCc2ccc3ccccc3c2)[C@H](NC(=O)CCCNC(=N)N)[C@H](OCc2ccc3ccccc3c2)[C@@H]1O (stereo partly shown) [Compound 60]

>  <TESTED_TARGET>
Human SST5 somatostatin receptor (SSTR5) (Homo sapiens, UniProt P35346)

>  <EXPERIMENTAL_VALUE>
57

$$$$
>  <COMPOUND>
CO[C@H]1[C@H](O)[C@@H](COCc2ccc(-c3ccccc3)cc2)OC(OCc2ccc3ccccc3c2)[C@@H]1NC(=O)CCCN (stereo partly shown) [Compound 161]

>  <TESTED_TARGET>
Human SST5 somatostatin receptor (SSTR5) (Homo sapiens, UniProt P35346)

>  <EXPERIMENTAL_VALUE>
51

$$$$

----------
Each entry below carries its reported SSTR5 Inhib 0.5 uM % (inhibition of binding of SST-14 to SSTR5).
Target: Human SST5 somatostatin receptor (SSTR5) (Homo sapiens, UniProt P35346)
Construct: expressed in transfected cells; host or cells: HEK-293 EBNA
Assay: Filter plate assay for SST5 receptor, displacement of [125I]SST-14
Format: binding
Conditions: 0.5 uM
RECORDED_ENDPOINT: SSTR5 Inhib 0.5 uM % (inhibition of binding of SST-14 to SSTR5) (%)

>  <COMPOUND>
COC[C@H]1OC(OCc2ccc3ccccc3c2)[C@H](NC(=O)CCCNC(=N)N)[C@H](OCc2ccccc2)[C@@H]1O (some centres unmarked) [Compound 64]

>  <EXPERIMENTAL_VALUE>
57

$$$$
>  <COMPOUND>
CSC1O[C@H](COCc2ccc(Cl)cc2)[C@@H](O)[C@@H](OCc2ccc3ccccc3c2)[C@H]1NC(=O)CCCNC(=N)N (some centres unmarked) [Compound 49]

>  <EXPERIMENTAL_VALUE>
60

$$$$
>  <COMPOUND>
CSC1O[C@H](COCc2ccc3ccccc3c2)[C@@H](O)[C@@H](OCc2ccc(Cl)cc2)[C@H]1NC(=O)CCN (some centres unmarked) [Compound 158]

>  <EXPERIMENTAL_VALUE>
36

$$$$
>  <COMPOUND>
COC[C@H]1OC(OCc2ccc(-c3ccccc3)cc2)[C@H](NC(=O)CCCN)[C@@H](OCc2ccc(Cl)cc2)[C@@H]1O (some centres unmarked) [Compound 74]

>  <EXPERIMENTAL_VALUE>
64

$$$$
>  <COMPOUND>
COC[C@H]1OC(OCc2ccccc2)[C@H](NC(=O)CCCN)[C@H](OCc2ccc3ccccc3c2)[C@@H]1O (some centres unmarked) [Compound 76]

>  <EXPERIMENTAL_VALUE>
51

$$$$
>  <COMPOUND>
COC[C@H]1OC(OCc2ccc3ccccc3c2)[C@H](NC(=O)CCCN)[C@@H](OCc2ccc(Cl)cc2)[C@@H]1O (some centres unmarked) [Compound 61]

>  <EXPERIMENTAL_VALUE>
61

$$$$
>  <COMPOUND>
COC[C@H]1OC(OCc2ccc(-c3ccccc3)cc2)[C@H](NC(=O)CCCN)[C@@H](OCc2ccc(Cl)cc2)[C@@H]1O (some centres unmarked) [Compound 63]

>  <EXPERIMENTAL_VALUE>
50

$$$$
>  <COMPOUND>
COC[C@H]1OC(OCc2ccc3ccccc3c2)[C@H](NC(=O)CCNC(=N)N)[C@H](OCc2ccc(-c3ccccc3)cc2)[C@@H]1O (some centres unmarked) [Compound 36]

>  <EXPERIMENTAL_VALUE>
67

$$$$
>  <COMPOUND>
COC[C@H]1OC(OCc2ccc3ccccc3c2)[C@H](NC(=O)CCCN)[C@H](OCc2ccc(-c3ccccc3)cc2)[C@@H]1O (some centres unmarked) [Compound 43]

>  <EXPERIMENTAL_VALUE>
68

$$$$
>  <COMPOUND>
CSC1O[C@H](COCc2ccc3ccccc3c2)[C@@H](O)[C@@H](OCc2ccc3ccccc3c2)[C@H]1NC(=O)CNC(=N)N (some centres unmarked) [Compound 131]

>  <EXPERIMENTAL_VALUE>
52

$$$$
>  <COMPOUND>
COC[C@H]1OC(OCCc2ccccc2)[C@H](NC(=O)CCCN)[C@@H](OCc2ccc(Cl)cc2)[C@@H]1O (some centres unmarked) [Compound 42]

>  <EXPERIMENTAL_VALUE>
77

$$$$

----------
Target: Human SST5 somatostatin receptor (SSTR5) (Homo sapiens, UniProt P35346)
Construct: expressed in transfected cells; host or cells: HEK-293 EBNA
Assay: Filter plate assay for SST5 receptor, displacement of [125I]SST-14
Format: binding
Conditions: 0.5 uM
Label y for high-side SSTR5 Inhib 0.5 uM % (inhibition of binding of SST-14 to SSTR5) (at or above 50%) and n for low-side SSTR5 Inhib 0.5 uM % (inhibition of binding of SST-14 to SSTR5) (below it).

>  <COMPOUND>
CO[C@H]1[C@H](O)[C@@H](COCc2ccc3ccccc3c2)OC(OCc2ccc3ccccc3c2)[C@@H]1NC(=O)CNC(=N)N (stereo partly shown)

>  <TESTED_TARGET>
Human SST5 somatostatin receptor (SSTR5) (Homo sapiens, UniProt P35346)

>  <ANSWER_LABEL>
y

$$$$
>  <COMPOUND>
COC[C@H]1OC(OCc2ccccc2)[C@H](NC(=O)CCNC(=N)N)[C@H](OCc2ccc(Cl)cc2)[C@@H]1O (stereo partly shown)

>  <TESTED_TARGET>
Human SST5 somatostatin receptor (SSTR5) (Homo sapiens, UniProt P35346)

>  <ANSWER_LABEL>
n

$$$$
>  <COMPOUND>
CSC1O[C@H](COCc2ccc(-c3ccccc3)cc2)[C@@H](O)[C@@H](OCc2ccc3ccccc3c2)[C@H]1NC(=O)CCN (stereo partly shown)

>  <TESTED_TARGET>
Human SST5 somatostatin receptor (SSTR5) (Homo sapiens, UniProt P35346)

>  <ANSWER_LABEL>
y

$$$$
>  <COMPOUND>
CSC1O[C@H](COCc2ccc(Cl)cc2)[C@@H](O)[C@@H](OCc2ccc3ccccc3c2)[C@H]1NC(=O)CN (stereo partly shown)

>  <TESTED_TARGET>
Human SST5 somatostatin receptor (SSTR5) (Homo sapiens, UniProt P35346)

>  <ANSWER_LABEL>
n

$$$$
>  <COMPOUND>
COC[C@H]1OC(OCCc2ccccc2)[C@H](NC(=O)CCCNC(=N)N)[C@@H](OCc2ccc(Cl)cc2)[C@@H]1O (stereo partly shown) [Compound 168]

>  <TESTED_TARGET>
Human SST5 somatostatin receptor (SSTR5) (Homo sapiens, UniProt P35346)

>  <ANSWER_LABEL>
n

$$$$
>  <COMPOUND>
COC[C@H]1OC(OCCc2ccccc2)[C@H](NC(=O)CCCN)[C@@H](OCc2ccc(Cl)cc2)[C@@H]1O (stereo partly shown) [Compound 145]

>  <TESTED_TARGET>
Human SST5 somatostatin receptor (SSTR5) (Homo sapiens, UniProt P35346)

>  <ANSWER_LABEL>
n

$$$$
>  <COMPOUND>
COC[C@H]1OC(OCc2ccc(Cl)cc2)[C@H](NC(=O)CCCN)[C@@H](OCc2ccc3ccccc3c2)[C@@H]1O (stereo partly shown) [Compound 19]

>  <TESTED_TARGET>
Human SST5 somatostatin receptor (SSTR5) (Homo sapiens, UniProt P35346)

>  <ANSWER_LABEL>
y

$$$$
